Tested on: NCI-H226 lung
Assay: NCI tumour cell line growth inhibition, 48 h
Quantity: TGI

These recorded examples may help you get a feel for the data.
Cc1cc2c(c(S(=O)(=O)c3ccc(Cl)cc3[N+](=O)[O-])c1)NCCC2; > 100 µM
Cc1cc(Cl)nc(Nc2nc3ccccc3[nH]2)n1; > 100 µM

Here is the next item to consider.
I'd like to know its TGI. The compound in question is Cc1ccccc1OC(C)C(=O)NN1C(=O)CC(=O)NC1=S (configuration not stated) > 100 µM

----------
# TGI listing for each entry below
Tested on: HCT-15 colon
Assay: NCI tumour cell line growth inhibition, 48 h

A selection of reference data follows.
CC(C)(C)/C(O)=C\c1nc2ccc(C(F)(F)F)cc2[nH]c1=O; > 100 µM
O=C(c1ccc(Cl)cc1)N(C(=S)OC12CC3CC(CC(C3)C1)C2)c1ccccc1; > 100 µM
Cc1ccc(S(=O)(=O)c2ccccc2)cc1; > 100 µM
O=C1/C(=C\c2cccc(Oc3ccccc3)c2)SC(c2ccccc2)N1c1ccccc1Cl (stereo not given); > 100 µM

Proceed to the following item.
Name the recorded TGI for `O=C(C[n+]1cccc2cc(Cl)ccc21)c1ccc2c(c1)CCCC2` . 31.7 µM

----------
Listing: TGI of selected compounds
System: HOP-92 NSCLC
Assay: NCI tumour cell line growth inhibition, 48 h

CCCCCCCCCCc1c2nc(c(CCCCCCCCCC)c3ccc([nH]3)c(CCCCCCCCCC)c3ccc([nH]3)c(CCCCCCCCCC)c3nc1C=C3)C=C2; > 100 µM
CC1CC/C(=C\c2ccc(F)cc2)C2=C1C(c1ccc(F)cc1)n1c(s/c(=C/c3cccc(Br)c3)c1=O)=N2 (stereo unspecified); > 100 µM
Cc1cc(Cl)nc(Nc2nc3ccccc3[nH]2)n1; > 100 µM
S=C(S)NCCNC(=S)S.[Cu+2]; > 100 µM
COC(=O)C1C(OS(=O)(=O)O)CCC2CN3CCc4c([nH]c5ccccc45)C3CC21 (stereo unspecified); > 100 µM

Next compound, TGI to be filled in.
Reported TGI, compound `COc1cc(C=C(c2ccc(N(C)C)cc2)c2ccc(N(C)C)cc2)c2ccccc2c1OC` : ____ > 100 µM

----------
Tested on: MOLT-4 leukemia
Assay: NCI tumour cell line growth inhibition, 48 h
Quantity: TGI

Below, each entry is followed by its recorded TGI result.
COC(=O)C(Cc1c[nH]c2ccccc12)NP(=O)(O)OCC1OC(n2ccc(N)nc2=O)C(O)C1O (centres undefined); > 100 µM
CC1=C(C(=O)Nc2ccc(F)c(Cl)c2)C(c2cccc(Cl)c2)NC(=S)N1 (centres undefined); > 50 µM

Item COC(=O)C12C3C4(C(=O)OC)C1C1(C(=O)OC)C2C3(C(=O)OC)C41C(=O)N(C(C)C)C(C)C (centres undefined) has what recorded TGI? > 100 µM

Which value of TGI has been reported for `O=C(/C=C/c1ccc(O)c(O)c1)OCCCOC(=O)/C=C/c1ccc(O)c(O)c1` in the records? > 100 µM

----------
Parameter: TGI. Scope: all listed entries.
Test system: SK-OV-3 ovarian
Assay: NCI tumour cell line growth inhibition, 48 h

A selection of reference data follows.
COc1cc(Nc2ccnc(NCCNc3ccnc4cc(Cl)ccc34)n2)cc(OC)c1; 21 µM
COc1ccc2c(c1)/C(=N/OC(C)=O)c1c-2c(Nc2cccc(/C(C)=N/OC(C)=O)c2)nc2ccccc12; > 100 µM

Which TGI reading was recorded for the compound `O=C1/C(=C/c2ccccc2)CN(C(=O)CCN2CCC(=NO)CC2)C/C1=C\c1ccccc1` ? 7.09 µM

Recorded TGI for `Cc1cn(CCCC2=NCCCN2)c(=O)[nH]c1=O` , please? > 100 µM

Looking for the measured TGI of `CCCCCCCCCCC(=O)CC(=O)c1c(O)cccc1O` , can you help? > 100 µM

Endpoint output: TGI of `CCC(=O)Nc1ccc(NCC(=O)Nc2ccc(Cl)cc2)cc1` . Value? 64.1 µM

Name the reported TGI value associated with the compound CC(C)(C)COC1C2(OCCO2)C2CCC1(C)C2(C)C (configuration not stated) > 100 µM
